These entries and their values trace back to paper PMC12195967.

# System: EB–DNA adduct (CT DNA)
# procedure-text: EB-displacement (EB–DNA fluorescence quenching)
# Type: binding, calf
result-type: Stern–Volmer constant Ksv (EB–DNA)

Any idea what Stern–Volmer constant Ksv (EB–DNA) was measured for O=C([O-])c1ccccc1Nc1ccc([N+](=O)[O-])cc1.O=C([O-])c1ccccc1Nc1ccc([N+](=O)[O-])cc1.[Co+2].c1cnc2c(c1)ccc1cccnc12 [Complex 3, [Co(4′–NO2–fen)2(phen)]] ?
7.39 (±0.21) × 10^4 M^−1

Could you share which Stern–Volmer constant Ksv (EB–DNA) value was measured for CO.CO.CO.CO.O=C([O-])c1ccccc1Nc1ccc([N+](=O)[O-])cc1.O=C([O-])c1ccccc1Nc1ccc([N+](=O)[O-])cc1.[Co+2] [Complex 1, [Co(4′–NO2–fen)2(MeOH)4]] ?
4.99 (±0.14) × 10^4 M^−1

Entry O=C(O)c1ccccc1Nc1ccc([N+](=O)[O-])cc1 [4′–NO2–fenH, 4′–nitrofenamic acid] has what Stern–Volmer constant Ksv (EB–DNA)?
5.36 (±0.27) × 10^4 M^−1

// returns reported Stern–Volmer constant Ksv (EB–DNA) for input C[O-].C[O-].Cc1ccc2ccc3ccc(C)nc3c2n1.Cc1ccc2ccc3ccc(C)nc3c2n1.O=C([O-])c1ccccc1Nc1ccc([N+](=O)[O-])cc1.O=C([O-])c1ccccc1Nc1ccc([N+](=O)[O-])cc1.[Co+2].[Co+2] [Complex 4, [Co2(4′–NO2–fen)2(μ–CH3O)2(neoc)2]]
7.78 (±0.24) × 10^4 M^−1

Which Stern–Volmer constant Ksv (EB–DNA) value is on record for O=C([O-])c1ccccc1Nc1ccc([N+](=O)[O-])cc1.O=C([O-])c1ccccc1Nc1ccc([N+](=O)[O-])cc1.[Co+2].c1ccc(Nc2ccccn2)nc1 [Complex 2, [Co(4′–NO2–fen)2(bipyam)]] ?
8.91 (±0.21) × 10^4 M^−1

* * *

# target-under-test: bovine serum albumin (BSA) (Bos taurus)
# Construct: purchased Sigma-Aldrich Co
# Sequence (P02769 25-607): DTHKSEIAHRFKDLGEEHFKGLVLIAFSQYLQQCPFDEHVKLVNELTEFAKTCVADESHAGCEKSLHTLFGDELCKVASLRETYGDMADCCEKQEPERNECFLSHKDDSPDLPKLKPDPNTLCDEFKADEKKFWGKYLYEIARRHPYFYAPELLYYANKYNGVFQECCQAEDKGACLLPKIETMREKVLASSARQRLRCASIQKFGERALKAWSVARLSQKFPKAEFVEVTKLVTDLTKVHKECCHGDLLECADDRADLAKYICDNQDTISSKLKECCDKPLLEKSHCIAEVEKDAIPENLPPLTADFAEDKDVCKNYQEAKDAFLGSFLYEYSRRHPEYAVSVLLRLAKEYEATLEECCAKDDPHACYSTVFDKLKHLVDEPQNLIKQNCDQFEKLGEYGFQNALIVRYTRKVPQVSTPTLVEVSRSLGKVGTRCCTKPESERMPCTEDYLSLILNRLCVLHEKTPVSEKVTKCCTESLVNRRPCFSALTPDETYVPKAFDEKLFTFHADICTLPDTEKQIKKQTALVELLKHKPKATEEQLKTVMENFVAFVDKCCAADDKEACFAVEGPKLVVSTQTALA
# procedure-text: Competitive albumin-fluorescence studies with warfarin and ibuprofen
# Format: binding
# experimental-parameters: in the presence of warfarin
# From the text: One of the primary functions of SAs is the transport of various compounds such as drugs, fatty acids and hormones. Albumins are composed of three domains, I, II and III, and each of them is subdivided into A and B subdomains that host compounds [90]. […] Incremental addition of the compounds into a solution containing the SA (HSA or BSA) and the respective site marker (warfarin or ibuprofen) induced quenching of the initial fluorescence emission band (Figures S19–S22). […]
result-type: K(BSA, warfarin)

What does the data say about its K(BSA, warfarin)? Entry: CO.CO.CO.CO.O=C([O-])c1ccccc1Nc1ccc([N+](=O)[O-])cc1.O=C([O-])c1ccccc1Nc1ccc([N+](=O)[O-])cc1.[Co+2] [Complex 1, [Co(4′–NO2–fen)2(MeOH)4]]
1.06 (±0.04) × 10^5 M^−1

// query K(BSA, warfarin) value for entry O=C(O)c1ccccc1Nc1ccc([N+](=O)[O-])cc1 [4′–NO2–fenH, 4′–nitrofenamic acid]
1.41 (±0.06) × 10^5 M^−1

I'd like to know its K(BSA, warfarin). The compound in question is C[O-].C[O-].Cc1ccc2ccc3ccc(C)nc3c2n1.Cc1ccc2ccc3ccc(C)nc3c2n1.O=C([O-])c1ccccc1Nc1ccc([N+](=O)[O-])cc1.O=C([O-])c1ccccc1Nc1ccc([N+](=O)[O-])cc1.[Co+2].[Co+2] [Complex 4, [Co2(4′–NO2–fen)2(μ–CH3O)2(neoc)2]]
2.40 (±0.06) × 10^5 M^−1

Look up K(BSA, warfarin) for this compound: O=C([O-])c1ccccc1Nc1ccc([N+](=O)[O-])cc1.O=C([O-])c1ccccc1Nc1ccc([N+](=O)[O-])cc1.[Co+2].c1cnc2c(c1)ccc1cccnc12 [Complex 3, [Co(4′–NO2–fen)2(phen)]]
1.60 (±0.06) × 10^5 M^−1

What value of K(BSA, warfarin) has been reported for the following compound? O=C([O-])c1ccccc1Nc1ccc([N+](=O)[O-])cc1.O=C([O-])c1ccccc1Nc1ccc([N+](=O)[O-])cc1.[Co+2].c1ccc(Nc2ccccn2)nc1 [Complex 2, [Co(4′–NO2–fen)2(bipyam)]]
1.85 (±0.06) × 10^5 M^−1
